Source of measurements: patent US20220056137A1

Please provide measured EC50 for the entries that follow.
molecular target: T1, rhPD-L1-Fc (human, UniProt Q9NZQ7 19-239, limits assumed); test: competition ELISA: plate-bound rhPD-L1-Fc, antibody titrated, competitor rhCD80-His detected
T1 construct: Recombinant human PD-L1-Fc coated on ELISA plates; not shown: Fc part
T1 sequence (Q9NZQ7 19-239 limits assumed): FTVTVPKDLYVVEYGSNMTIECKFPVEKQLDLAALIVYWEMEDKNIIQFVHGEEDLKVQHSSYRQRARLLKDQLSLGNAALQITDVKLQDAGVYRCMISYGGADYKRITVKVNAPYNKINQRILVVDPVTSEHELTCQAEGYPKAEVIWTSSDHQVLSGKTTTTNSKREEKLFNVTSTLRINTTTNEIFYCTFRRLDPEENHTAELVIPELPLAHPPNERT
Write down the numeric answer in mg/L and omit the unit.

Qu. Value lookup for EC50; key = antibody A8 (antibody, V domains shown, Tested as full-length mAb made in CHO cells; also called L8H8) VH: QVQLVQSGAEVKKPGASVKVSCKASGYTFTSYGISWVRQAPGQGLEWMGWISAYNGSTNYAQKLQGRVTMTTDTSTSTAYMELRSLRSDDTAVFYCARDDRIAVADYYYYFGMDVWGQGTTVTVSS VL: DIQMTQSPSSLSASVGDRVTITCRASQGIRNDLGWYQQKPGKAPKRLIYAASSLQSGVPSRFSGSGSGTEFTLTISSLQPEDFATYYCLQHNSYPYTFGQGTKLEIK
Ans. 0.46

Qu. Value lookup for EC50; key = antibody A7 (antibody, V domains shown, Tested as full-length mAb made in CHO cells; also called L7H7) VH: QVQLQESGPGLVKPSETLSLTCTVSGGSISSYYWSWIRQPPGKGLEWIGYIFYSGSTNYNPSLKSRVTISVDTSKNQFSLKLSSVTAADTAVYFCARDNWHDGGVDYWGQGTLVTVSS VL: EIVMTQSPTTLSLSPGERATLSCRASQSVSSSYLSWYQQKPGQAPRLLIYGASTRATGIPARFSGSGSGTDFTLTISSLQPEDFAVYYCQQDYNLRTFGQGTKVEIK
Ans. 1.88

Qu. Value lookup for EC50; key = antibody A10 (antibody, V domains shown, Tested as full-length mAb made in CHO cells; also called L10H10) VH: QVQLVESGGGVVQPGRSLRLSCAASGFTFSSYGMHWVRQAPGKGLEWVAVIWYDGINKYYADSVKGRFTISRDNSKNTLYLQMNSLRAEDTAVYYCARDSTASPFDYWGQGTLVTVSS VL: EIVMTQSPATLSLSPGERATLSCRASQSVSSSYLSWYQQKPGQAPRLLIYGASTRATGIPARFSGSGSGTDFTLTISSLQPEDFAVYYCQQDYNLPHTFGQGTKLEIK
Ans. 2.24

Qu. Value lookup for EC50; key = antibody A13 (antibody, V domains shown, Tested as full-length mAb made in CHO cells; also called L13H13) VH: QVQLQESGPGLVKPSETLSLTCTVSGGSISSYYWSWIRQPPGKGLEWIGYIHYSGSTKYNPSLKSRVTISLDTSKNQFSLKLSSVTAADTAVYYCARDRGIGAFDIWGQGTMVTVSS VL: EIVMTQSPATLSLSPGERATLSCRASQSVSSSYLSWYQQKPGQAPRLLIYGASTRATGIPARFSGSGSGTDFTLTISSLQPEDFAVYYCQQDYNLITFGQGTRLEIK
Ans. 0.6

Qu. Value lookup for EC50; key = antibody A5 (antibody, V domains shown, Tested as full-length mAb made in CHO cells; also called L5H5) VH: QVQLVESGGGVVQPGRSLRLSCAASGFAFSSYGMHWVRQAPGKGLEWVALIWFDGNNKFYADSVKGRFTISRDNSKNTLYLQMNSLRAEDTAVYYCARDTTAASFDYWGQGTLVTVSS VL: EIVMTQSPATLSLSPGERATLSCRASQSVSSTYLSWYQQKPGQAPRLLIFGASTRATGIPARFSGSGSGTDFTLTISSLQPEDFAVYYCQQDYNLPPTFGPGTKVDIK
Ans. 0.97
